Numbers sourced from patent US20230012273A1.

Molecular target: T1, Human SIRPαV2 (CAA71403.1), Extracellular Domain + His-Tag (human, UniProt P78324 31-373)
T1 construct: also called huSIRPαV2; hSIRPαV2; not shown: His-Tag
T1 sequence (P78324 other isoform, or with tags, fused parts or gaps): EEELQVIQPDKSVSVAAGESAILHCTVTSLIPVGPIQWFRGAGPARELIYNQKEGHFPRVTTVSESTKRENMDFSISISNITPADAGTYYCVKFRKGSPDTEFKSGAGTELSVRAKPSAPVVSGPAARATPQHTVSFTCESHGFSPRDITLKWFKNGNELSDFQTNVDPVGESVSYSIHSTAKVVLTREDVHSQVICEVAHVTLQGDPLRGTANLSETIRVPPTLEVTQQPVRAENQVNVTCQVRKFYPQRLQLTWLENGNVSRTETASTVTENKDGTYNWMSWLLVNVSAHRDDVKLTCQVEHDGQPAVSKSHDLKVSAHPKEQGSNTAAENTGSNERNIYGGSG
Experiment: SPR, antibody captured on Protein A/G, ECD-His analyte, 1:1 fit
Below is a list of entries, each paired with its recorded kon value.
Reply with just the number (in M⁻¹ s⁻¹).

Here's what some known entries look like.
binder: Antibody A14 (antibody, human IgG1, kappa, L234A L235A, V domains shown) VH: EVQLVESGGGLVQPGGSLRLSCAASGFTLSSYDMHWVRQAPGKGLEWVSAIGTAGDTYYTGSVKGRFTISRENAKNSLYLQMNSLRASDTAVYYCVRGGVWDDAFDIWGQGTMVTVSS VL: DIQMTQSPSSLSASVGDRVTITCRASQDINNYLAWFQQKPGKAPKSLIYTASSLHSGVPSKFSGSGSGTDFTLTISSLQPEDFATYYCQQYVSYPYTFGQGTKLEIKR
reportedValue: 816000
--
binder: Antibody A3 (antibody, human IgG1, kappa, L234A L235A, V domains shown) VH: EVQLVESGGGLVQPGGSLRLSCAASGFTLSSYDMHWVRQATGKGLEWVSAIGTAGDTYYTGSVKGRFTISRENAKNSLYLQMNSLRASDTAVYYCVRGGVWDDAFDIWGQGTMVTVSS VL: DIQMTQSPSSLSASVGDRVTITCRASQGINNYAAWFQQKPGKAPKSLIYTASSLHSGVPSKFSGSGSGTDFTLTISSLQPEDFATYYCQQYVSYPYTFGQGTKLEIKR
reportedValue: 907000
--
binder: Antibody E14 (antibody, human IgG1, kappa, L234A L235A, V domains shown) VH: QVQLQESGPGLVRPSETLSLTCTVSGGSIRNYYWSWIRQPPGKGLEWIGFIYYNGRTFYNPSLKSRVTISLDKSKNQFSLKMTSVTAADTAVYYCARVRAYSGIGLDGTDVWGQGTTVTVSS VL: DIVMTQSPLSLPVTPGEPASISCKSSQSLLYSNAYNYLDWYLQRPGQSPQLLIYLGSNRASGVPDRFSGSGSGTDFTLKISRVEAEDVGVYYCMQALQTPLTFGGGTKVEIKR
reportedValue: 453000

The binder identified as Antibody E13 (antibody, human IgG1, kappa, L234A L235A, V domains shown) VH: QVQLQESGPGLVRPSETLSLTCTVSGGSIRNYYWSWIRQPPGKGLEWIGFIYYTGRTFYNPSLKSRVTISLDMSINQFSLKMTSVTAADTAVYYCARVRAYSGIGLDGTDVWGQGTTVTVSS VL: DIVMTQSPLSLPVTPGEPASISCKSSQSLLYSNGYAYLDWYLQRPGQSPQLLIYQGSNRASGVPDRFSGSGSGTDFTLKISRVEAEDVGVFYCMQALQTPLTFGGGTKVEIKR registered its kon at 490000

Measured kon, Antibody E21 (antibody, human IgG1, kappa, L234A L235A, V domains shown) VH: QVQLQESGPGLVRPSETLSLTCTVSGGSIRNYYWSWIRQPPGKGLEWIGFIYYTGRTFYNPSLKSRVTISLDMSKNQFSLKMTSVTAADTAVYYCARVRAYSGIGLDGTDVWGQGTTVTVSS VL: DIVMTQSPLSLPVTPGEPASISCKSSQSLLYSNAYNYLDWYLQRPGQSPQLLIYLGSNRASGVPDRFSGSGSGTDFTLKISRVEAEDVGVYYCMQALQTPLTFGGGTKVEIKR : 549000
